System: IGR-1 (Melanoma);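 note: after 72 h of two-drug dosing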
PROTOCOL SUMMARY: Bliss excess, mean over the matrix (fraction); higher = more synergy
PARAMETER: Bliss excess

Past entries and their recorded results:
- COMPOUND: "CC(=O)c1c(C)c2cnc(Nc3ccc(N4CCNCC4)cn3)nc2n(C2CCCC2)c1=O [Palbociclib] + CC1(C)CCC(CN2CCN(c3ccc(C(=O)NS(=O)(=O)c4ccc(NCC5CCOCC5)c([N+](=O)[O-])c4)c(Oc4cnc5[nH]ccc5c4)c3)CC2)=C(c2ccc(Cl)cc2)C1 [Venetoclax] (first compound max 10 µM, 7x7, partner max 1 µM)"
  ASSAYED SYSTEM: "IGR-1 (Melanoma)"
  Bliss excess: -0.0267
- COMPOUND: "CC1(C)CCC(CN2CCN(c3ccc(C(=O)NS(=O)(=O)c4ccc(NCC5CCOCC5)c([N+](=O)[O-])c4)c(Oc4cnc5[nH]ccc5c4)c3)CC2)=C(c2ccc(Cl)cc2)C1 [Venetoclax] + C[C@@H](Nc1cc(F)cc(F)c1)c1cc(C(=O)N(C)C)cc2c(=O)cc(N3CCOCC3)oc12 [AZD8186] (first compound max 1 µM, 7x7, partner max 3 µM)"
  ASSAYED SYSTEM: "IGR-1 (Melanoma)"
  Bliss excess: -0.0471
- COMPOUND: "CN(CCO)CC[C@H](CSc1ccccc1)Nc1ccc(S(=O)(=O)NC(=O)c2ccc(N3CCC([C@@H](O)c4ccccc4-c4ccc(Cl)cc4)CC3)cc2)cc1S(=O)(=O)C(F)(F)F [AZD4320] + Cn1cnc2c(F)c(Nc3ccc(Br)cc3Cl)c(C(=O)NOCCO)cc21 [Selumetinib] (first compound max 1 µM, 7x7, partner max 3 µM)"
  ASSAYED SYSTEM: "IGR-1 (Melanoma)"
  Bliss excess: 0.143
- COMPOUND: "COc1nnc2ccc(N3CCC(c4ccc(OCCN5CCN(C)C(=O)[C@H]5C)cc4)CC3)nn12 [AZD5153] + C[C@@H]1COCCN1C2=NC(=NC(=C2)C3(CC3)[S@](=N)(=O)C)C4=C5C=CNC5=NC=C4 [AZD6738] (first compound max 1 µM, 7x7, partner max 10 µM)"
  ASSAYED SYSTEM: "IGR-1 (Melanoma)"
  Bliss excess: 0.0759
- COMPOUND: "Cn1cnc2c(F)c(Nc3ccc(Br)cc3Cl)c(C(=O)NOCCO)cc21 [Selumetinib] + CCN(CCO)CCCOc1ccc2c(Nc3cc(CC(=O)Nc4cccc(F)c4)[nH]n3)ncnc2c1 [AZD2811] (first compound max 10 µM, 7x7, partner max 1 µM)"
  ASSAYED SYSTEM: "IGR-1 (Melanoma)"
  Bliss excess: -0.007

### Prompt Requested field: Bliss excess. Item: COc1cccc(OCCCN)c1-c1cc(Nc2cnc(C#N)cn2)n[nH]1 [Prexasertib] + CCc1c2c(nc3ccc(O)cc13)-c1cc3c(c(=O)n1C2)COC(=O)[C@]3(O)CC [SN-38] (first compound max 1 µM, 7x7, partner max 0.3 µM)
### Response 0.0316

### Prompt Requested field: Bliss excess. Item: CCc1c2c(nc3ccc(O)cc13)-c1cc3c(c(=O)n1C2)COC(=O)[C@]3(O)CC [SN-38] + CN(C)CCCOc1ccc(-c2ccc3ncc4c(c3c2)n(C2CCOCC2)c(=O)n4C)cn1 [AZD0156] (first compound max 0.3 µM, 7x7, partner max 1 µM)
### Response 0.0179
